- RUN DESCRIPTION: refractive index (Na D-line) (dimensionless)
- CONDITION CONTEXT: 298.15 K; 101.33 kPa; Liquid; Standard Abbe refractometry
PROPERTY NAME: refractive index
Format: numeric value only, no unit, no commentary.

- COMPOUND: "c1ccccc1 [benzene]"
  NUMERIC VALUE: 1.5009
- COMPOUND: "CN(C)C=O [dimethylformamide]"
  NUMERIC VALUE: 1.4307
- COMPOUND: "Cc1ccccc1 [toluene]"
  NUMERIC VALUE: 1.4965

Now turn to the next compound.
Query string: May I ask what refractive index has been recorded for CCc1ccccc1 [ethylbenzene] ?
Result string: 1.4962
